Test system: MDA-MB-231 multicell spheroids, viability (%T/C)
Assay: Anticancer human tumor MDA-MB-231 cell line growth inhibition [IpAb]
Conditions: second compound 1 µM; first compound 0.316 µM; stronger effect = lower value
Criterion: viability, T/C strictly less than 60%. Met: 1. Not met: 0.

Examples with answers:
Compound | Class Name
Cc1nc(NC(=O)N2CCCC2C(N)=O)sc1-c1ccnc(C(C)(C)C(F)(F)F)c1 (stereo not given) + CCN1CCN(Cc2ccc(Nc3ncc(F)c(-c4cc(F)c5nc(C)n(C(C)C)c5c4)n3)nc2)CC1 | 1
Cn1nccc1Nc1nccc(-c2ccn(C(CO)c3ccc(Cl)c(F)c3)c(=O)c2)n1 (stereo not given) + CC(C)NCC(C(=O)N1CCN(c2ncnc3c2C(C)CC3O)CC1)c1ccc(Cl)cc1 | 1
C=CCn1c(=O)c2cnc(Nc3ccc(N4CCN(C)CC4)cc3)nc2n1-c1cccc(C(C)(C)O)n1 + CCN1CCN(Cc2ccc(Nc3ncc(F)c(-c4cc(F)c5nc(C)n(C(C)C)c5c4)n3)nc2)CC1 | 1
Cc1nc(NC(=O)N2CCCC2C(N)=O)sc1-c1ccnc(C(C)(C)C(F)(F)F)c1 (stereo not given) + CC(C)NCC(C(=O)N1CCN(c2ncnc3c2C(C)CC3O)CC1)c1ccc(Cl)cc1 | 1

--- query ---
Request: Given the entry Cn1ncc(Cl)c1-c1cc(C(=O)NC(CN)Cc2cccc(F)c2)sc1Cl (stereo not given) + CC(C)NCC(C(=O)N1CCN(c2ncnc3c2C(C)CC3O)CC1)c1ccc(Cl)cc1 , would its reported viability, T/C be below 60%?
Response: 0

----------
Let's look at some compounds and their measured viability, T/C.
System: MDA-MB-231 multicell spheroids, viability (%T/C)
Experiment: Anticancer human tumor MDA-MB-231 cell line growth inhibition [IpAb]
Conditions: second compound 1 µM; first compound 0.316 µM; stronger effect = lower value

Compound | Result
COc1c(OCCCN2CCOCC2)ccc2c3n(c(=NC(=O)c4cnc(N)nc4)nc12)CCN3 + CCN1CCN(Cc2ccc(Nc3ncc(F)c(-c4cc(F)c5nc(C)n(C(C)C)c5c4)n3)nc2)CC1 | 55.1%
CCCS(=O)(=O)Nc1ccc(F)c(C(=O)c2c[nH]c3ncc(-c4ccc(Cl)cc4)cc23)c1F + CCN1CCN(Cc2ccc(Nc3ncc(F)c(-c4cc(F)c5nc(C)n(C(C)C)c5c4)n3)nc2)CC1 | 53.1%
CC1(C)CCC(CN2CCN(c3ccc(C(=O)NS(=O)(=O)c4ccc(NCC5CCOCC5)c([N+](=O)[O-])c4)c(Oc4cnc5[nH]ccc5c4)c3)CC2)=C(c2ccc(Cl)cc2)C1 + CC(C)NCC(C(=O)N1CCN(c2ncnc3c2C(C)CC3O)CC1)c1ccc(Cl)cc1 | 75.4%
CCCS(=O)(=O)Nc1ccc(F)c(C(=O)c2c[nH]c3ncc(-c4ccc(Cl)cc4)cc23)c1F + CC(C)NCC(C(=O)N1CCN(c2ncnc3c2C(C)CC3O)CC1)c1ccc(Cl)cc1 | 79.8%
C=CC(=O)N1CCN(c2nc(=O)n(-c3c(C)ccnc3C(C)C)c3nc(-c4c(O)cccc4F)c(F)cc23)C(C)C1 (stereo unspecified) + CC(C)NCC(C(=O)N1CCN(c2ncnc3c2C(C)CC3O)CC1)c1ccc(Cl)cc1 | 82.3%

Next item in the queue.
Request: Dear colleague, I am looking for the recorded viability, T/C of the following compound: C=CC(=O)N1CCN(c2nc(=O)n(-c3c(C)ccnc3C(C)C)c3nc(-c4c(O)cccc4F)c(F)cc23)C(C)C1 (stereo unspecified) + CCN1CCN(Cc2ccc(Nc3ncc(F)c(-c4cc(F)c5nc(C)n(C(C)C)c5c4)n3)nc2)CC1
Response: 61.1%

----------
Tested on: MDA-MB-231 multicell spheroids, viability (%T/C)
Assay: Anticancer human tumor MDA-MB-231 cell line growth inhibition [IpAb];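 also: viability read after seven days of drug exposure; 100% = DMSO vehicle control viability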
Conditions: second compound 0.1 µM; first compound 0.000316 µM; stronger effect = lower value
Readout: viability, T/C

Example compounds with recorded viability, T/C:
Compound | Result
Cn1ncnc1[C@H]1c2n[nH]c(=O)c3cc(F)cc(c23)N[C@@H]1c1ccc(F)cc1 + CCN1CCN(Cc2ccc(Nc3ncc(F)c(-c4cc(F)c5nc(C)n(C(C)C)c5c4)n3)nc2)CC1 | 58.8%
Cn1ncnc1[C@H]1c2n[nH]c(=O)c3cc(F)cc(c23)N[C@@H]1c1ccc(F)cc1 + CC(C)NCC(C(=O)N1CCN(c2ncnc3c2C(C)CC3O)CC1)c1ccc(Cl)cc1 | 96.6%
CC(C)n1nc(-c2ccc3oc(N)nc3c2)c2c(N)ncnc21 + CC(C)NCC(C(=O)N1CCN(c2ncnc3c2C(C)CC3O)CC1)c1ccc(Cl)cc1 | 90.9%

Next item in the queue.
Request: Dear colleague, I am looking for the recorded viability, T/C of the following compound: CC(C)n1nc(-c2ccc3oc(N)nc3c2)c2c(N)ncnc21 + CCN1CCN(Cc2ccc(Nc3ncc(F)c(-c4cc(F)c5nc(C)n(C(C)C)c5c4)n3)nc2)CC1
Response: 55.1%

----------
Tested on: MDA-MB-231 multicell spheroids, viability (%T/C)
Assay: Anticancer human tumor MDA-MB-231 cell line growth inhibition [IpAb];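 also: viability read after seven days of drug exposure; 100% = DMSO vehicle control viability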
Conditions: second compound 3.16 µM; first compound 3.16 µM; stronger effect = lower value
Readout: viability, T/C (%)
State just the number; it will be interpreted in %.

Example compounds with recorded viability, T/C:
Compound | Readout | Result Number
Cc1nc(NC(=O)N2CCCC2C(N)=O)sc1-c1ccnc(C(C)(C)C(F)(F)F)c1 (configuration not stated) + CC(C)NCC(C(=O)N1CCN(c2ncnc3c2C(C)CC3O)CC1)c1ccc(Cl)cc1 | viability, T/C | 46.1
CCCS(=O)(=O)Nc1ccc(F)c(C(=O)c2c[nH]c3ncc(-c4ccc(Cl)cc4)cc23)c1F + CC(C)NCC(C(=O)N1CCN(c2ncnc3c2C(C)CC3O)CC1)c1ccc(Cl)cc1 | viability, T/C | 42.9
Cn1ncc(Cl)c1-c1cc(C(=O)NC(CN)Cc2cccc(F)c2)sc1Cl (configuration not stated) + CC(C)NCC(C(=O)N1CCN(c2ncnc3c2C(C)CC3O)CC1)c1ccc(Cl)cc1 | viability, T/C | 33.6
Cn1nccc1Nc1nccc(-c2ccn(C(CO)c3ccc(Cl)c(F)c3)c(=O)c2)n1 (configuration not stated) + CC(C)NCC(C(=O)N1CCN(c2ncnc3c2C(C)CC3O)CC1)c1ccc(Cl)cc1 | viability, T/C | 12.9
C=CC(=O)N1CCN(c2nc(=O)n(-c3c(C)ccnc3C(C)C)c3nc(-c4c(O)cccc4F)c(F)cc23)C(C)C1 (configuration not stated) + CC(C)NCC(C(=O)N1CCN(c2ncnc3c2C(C)CC3O)CC1)c1ccc(Cl)cc1 | viability, T/C | 62.1

Request: Dear colleague, I am looking for the recorded viability, T/C of the following compound: CC1(C)CCC(CN2CCN(c3ccc(C(=O)NS(=O)(=O)c4ccc(NCC5CCOCC5)c([N+](=O)[O-])c4)c(Oc4cnc5[nH]ccc5c4)c3)CC2)=C(c2ccc(Cl)cc2)C1 + CC(C)NCC(C(=O)N1CCN(c2ncnc3c2C(C)CC3O)CC1)c1ccc(Cl)cc1
Response: 56.5

Request: What do you have for C=CCn1c(=O)c2cnc(Nc3ccc(N4CCN(C)CC4)cc3)nc2n1-c1cccc(C(C)(C)O)n1 + CC(C)NCC(C(=O)N1CCN(c2ncnc3c2C(C)CC3O)CC1)c1ccc(Cl)cc1 ?
Response: 14.6

----------
System: MDA-MB-231 multicell spheroids, viability (%T/C)
Assay: Anticancer human tumor MDA-MB-231 cell line growth inhibition [IpAb];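 also: viability read after seven days of drug exposure; 100% = DMSO vehicle control viability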
Settings: second compound 1 µM; first compound 0.949 µM; stronger effect = lower value
Readout: viability, T/C (%)
State just the number; it will be interpreted in %.

Compound | Result Number
CC(C)(C)c1cnc(CSc2cnc(NC(=O)C3CCNCC3)s2)o1 + CCN1CCN(Cc2ccc(Nc3ncc(F)c(-c4cc(F)c5nc(C)n(C(C)C)c5c4)n3)nc2)CC1 | 1.16
CC(C)(C)c1cnc(CSc2cnc(NC(=O)C3CCNCC3)s2)o1 + CC(C)NCC(C(=O)N1CCN(c2ncnc3c2C(C)CC3O)CC1)c1ccc(Cl)cc1 | 0.85
Cn1cnc2c(F)c(Nc3ccc(Br)cc3Cl)c(C(=O)NOCCO)cc21 + CCN1CCN(Cc2ccc(Nc3ncc(F)c(-c4cc(F)c5nc(C)n(C(C)C)c5c4)n3)nc2)CC1 | 14.9

Request: Dear colleague, I am looking for the recorded viability, T/C of the following compound: Cn1cnc2c(F)c(Nc3ccc(Br)cc3Cl)c(C(=O)NOCCO)cc21 + CC(C)NCC(C(=O)N1CCN(c2ncnc3c2C(C)CC3O)CC1)c1ccc(Cl)cc1
Response: 17.5

----------
System: MDA-MB-231 multicell spheroids, viability (%T/C)
Assay: Anticancer human tumor MDA-MB-231 cell line growth inhibition [IpAb];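 also: viability read after seven days of drug exposure; 100% = DMSO vehicle control viability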
Conditions: second compound 10 µM; first compound 0.0316 µM; stronger effect = lower value
Criterion: viability, T/C strictly less than 40%. Met: true. Not met: false.

Compound | Class Name
COc1c(OCCCN2CCOCC2)ccc2c3n(c(=NC(=O)c4cnc(N)nc4)nc12)CCN3 + CC(C)NCC(C(=O)N1CCN(c2ncnc3c2C(C)CC3O)CC1)c1ccc(Cl)cc1 | true
CCCS(=O)(=O)Nc1ccc(F)c(C(=O)c2c[nH]c3ncc(-c4ccc(Cl)cc4)cc23)c1F + CC(C)NCC(C(=O)N1CCN(c2ncnc3c2C(C)CC3O)CC1)c1ccc(Cl)cc1 | false
C=CC(=O)N1CCN(c2nc(=O)n(-c3c(C)ccnc3C(C)C)c3nc(-c4c(O)cccc4F)c(F)cc23)C(C)C1 (stereo not given) + CC(C)NCC(C(=O)N1CCN(c2ncnc3c2C(C)CC3O)CC1)c1ccc(Cl)cc1 | false
Cn1nccc1Nc1nccc(-c2ccn(C(CO)c3ccc(Cl)c(F)c3)c(=O)c2)n1 (stereo not given) + CC(C)NCC(C(=O)N1CCN(c2ncnc3c2C(C)CC3O)CC1)c1ccc(Cl)cc1 | true

Request: Given the entry Cn1ncnc1[C@H]1c2n[nH]c(=O)c3cc(F)cc(c23)N[C@@H]1c1ccc(F)cc1 + CC(C)NCC(C(=O)N1CCN(c2ncnc3c2C(C)CC3O)CC1)c1ccc(Cl)cc1 , would its reported viability, T/C be below 40%?
Response: true

Request: What do you have for Cc1nc(NC(=O)N2CCCC2C(N)=O)sc1-c1ccnc(C(C)(C)C(F)(F)F)c1 (stereo not given) + CC(C)NCC(C(=O)N1CCN(c2ncnc3c2C(C)CC3O)CC1)c1ccc(Cl)cc1 ?
Response: true

Request: What do you have for Cn1ncc(Cl)c1-c1cc(C(=O)NC(CN)Cc2cccc(F)c2)sc1Cl (stereo not given) + CC(C)NCC(C(=O)N1CCN(c2ncnc3c2C(C)CC3O)CC1)c1ccc(Cl)cc1 ?
Response: false

Request: What do you have for C=CCn1c(=O)c2cnc(Nc3ccc(N4CCN(C)CC4)cc3)nc2n1-c1cccc(C(C)(C)O)n1 + CC(C)NCC(C(=O)N1CCN(c2ncnc3c2C(C)CC3O)CC1)c1ccc(Cl)cc1 ?
Response: false

Request: What do you have for CC(C)n1nc(-c2ccc3oc(N)nc3c2)c2c(N)ncnc21 + CC(C)NCC(C(=O)N1CCN(c2ncnc3c2C(C)CC3O)CC1)c1ccc(Cl)cc1 ?
Response: true
